Target protein (sequence): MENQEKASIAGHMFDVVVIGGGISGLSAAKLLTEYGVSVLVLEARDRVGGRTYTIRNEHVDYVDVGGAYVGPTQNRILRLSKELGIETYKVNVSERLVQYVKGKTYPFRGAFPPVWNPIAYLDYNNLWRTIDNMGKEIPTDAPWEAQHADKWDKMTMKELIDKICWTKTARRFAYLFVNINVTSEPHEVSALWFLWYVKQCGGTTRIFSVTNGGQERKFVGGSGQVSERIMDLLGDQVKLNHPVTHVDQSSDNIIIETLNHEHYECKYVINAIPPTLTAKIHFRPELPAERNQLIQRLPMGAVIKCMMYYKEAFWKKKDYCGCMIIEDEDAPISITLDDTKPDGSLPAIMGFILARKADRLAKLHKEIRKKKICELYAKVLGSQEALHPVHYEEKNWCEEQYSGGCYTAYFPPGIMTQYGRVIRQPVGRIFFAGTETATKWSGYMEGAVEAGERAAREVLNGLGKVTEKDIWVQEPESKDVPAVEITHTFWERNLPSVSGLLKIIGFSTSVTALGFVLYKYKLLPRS
experimental readout: IC50 (nM)
Write the number in nM without appending the unit.

Completed entries (count: 6):
| structure smiles | quantity unit | measured number |
| --- | --- | --- |
| Fc1ccccc1Nc1nnc(Cc2ccccc2C(F)(F)F)o1 | nM | 1900 |
| Fc1cc(F)cc(Cc2nnc(Nc3ccc(F)cc3F)o2)c1 | nM | 1210 |
| CC(C)c1ccc(Nc2nnc(-c3ccc(C(F)(F)F)cc3)o2)cc1 | nM | 110 |
| N#Cc1cccc(Nc2nnc(-c3ccncc3)o2)c1 | nM | 1020 |
| c1ccc(Nc2nnc(-c3ccncc3)o2)cc1 | nM | 1440 |
| Cc1ccc(Nc2nnc(-c3ccncc3)o2)c(C)c1 | nM | 3460 |

In: Read off the recorded IC50 for N#Cc1cccc(Nc2nnc(Cc3ccccc3C(F)(F)F)o2)c1
Out: 2860

In: // fetch IC50 given entry Cc1ccc(Nc2nnc(-c3cccc(F)c3)o2)c(C)c1
Out: 1470

* * *

- target or system: butyryl cholinesterase (BChE) (Homo sapiens)
- Sequence (P06276 29-602, species assumed): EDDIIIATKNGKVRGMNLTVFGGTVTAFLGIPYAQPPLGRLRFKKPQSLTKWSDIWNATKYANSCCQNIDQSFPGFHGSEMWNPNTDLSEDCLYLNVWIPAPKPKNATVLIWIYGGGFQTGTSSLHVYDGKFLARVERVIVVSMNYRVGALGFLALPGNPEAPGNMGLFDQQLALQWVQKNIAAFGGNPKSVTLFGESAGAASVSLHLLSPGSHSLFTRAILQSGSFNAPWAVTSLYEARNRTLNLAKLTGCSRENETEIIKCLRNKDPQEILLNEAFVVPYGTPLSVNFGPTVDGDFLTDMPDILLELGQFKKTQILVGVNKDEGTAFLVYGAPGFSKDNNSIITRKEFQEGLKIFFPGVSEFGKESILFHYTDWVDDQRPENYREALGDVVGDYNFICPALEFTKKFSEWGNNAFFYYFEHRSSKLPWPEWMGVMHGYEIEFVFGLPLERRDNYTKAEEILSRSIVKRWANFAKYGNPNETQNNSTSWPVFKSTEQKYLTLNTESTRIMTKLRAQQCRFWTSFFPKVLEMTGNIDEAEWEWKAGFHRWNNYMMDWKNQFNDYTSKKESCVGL
- protocol summary: Butyryl cholinesterase inhibition assay
- Format: biochemical
- details: test concentration not given
experimental readout: BChE %age inhibition (% ^c)
Please give a number only; it is taken to be in % ^c.

| structure smiles | measured number |
| --- | --- |
| Cc1ccc(Nc2nnc(-c3cccc(F)c3)o2)c(C)c1 | 10.54 |
| N#Cc1cccc(Nc2nnc(Cc3ccccc3C(F)(F)F)o2)c1 | 23.65 |
| Cc1ccc(Nc2nnc(-c3ccncc3)o2)c(C)c1 | 14.67 |

In: Write down the reported BChE %age inhibition (system: butyryl cholinesterase (BChE) (Homo sapiens)) of Fc1ccccc1Nc1nnc(-c2ccc(C(F)(F)F)cc2)o1
Out: 21.45

In: Name the value of BChE %age inhibition reported for Cc1c(F)cccc1-c1nnc(Nc2ccccc2)o1 when tested on butyryl cholinesterase (BChE) (Homo sapiens).
Out: 32.98

* * *

Quick note: these are inhibition against MAO-A (in words) numbers for system: monoamine oxidase A (MAO-A, extracted) (Homo sapiens)

Please review the following examples before continuing.
| structure smiles | inhibition against MAO-A (in words) |
| --- | --- |
| Cc1ccc(Nc2nnc(-c3ccncc3)o2)c(C)c1 | potent inhibition |
| CC(C)c1ccc(Nc2nnc(-c3ccc(C(F)(F)F)cc3)o2)cc1 | potent inhibition |
| N#Cc1cccc(Nc2nnc(-c3ccc(C(F)(F)F)cc3)o2)c1 | weak inhibition |
| Cc1ccccc1Nc1nnc(-c2ccccc2)o1 | weak inhibition |
| N#Cc1cccc(Nc2nnc(-c3ccncc3)o2)c1 | potent inhibition |
| Cc1ccc(Nc2nnc(-c3cccc(F)c3)o2)c(C)c1 | potent inhibition |

In: // output inhibition against MAO-A (in words); input Fc1cc(F)cc(Cc2nnc(Nc3ccccc3F)o2)c1 ; system monoamine oxidase A (MAO-A, extracted) (Homo sapiens)
Out: weak inhibition

In: Provide measured inhibition against MAO-A (in words) on monoamine oxidase A (MAO-A, extracted) (Homo sapiens) for Fc1ccccc1Nc1nnc(Cc2ccccc2C(F)(F)F)o1 please.
Out: potent inhibition

In: Provide the reported inhibition against MAO-A (in words) (system: monoamine oxidase A (MAO-A, extracted) (Homo sapiens)) for Fc1ccccc1Nc1nnc(-c2ccc(C(F)(F)F)cc2)o1
Out: weak inhibition

In: Look up monoamine oxidase A (MAO-A, extracted) (Homo sapiens) data: inhibition against MAO-A (in words) of Cc1ccc(F)c(-c2nnc(Nc3ccccc3F)o2)c1 , then report it.
Out: weak inhibition

In: Please report inhibition against MAO-A (in words) with monoamine oxidase A (MAO-A, extracted) (Homo sapiens) for item Fc1cc(F)cc(Cc2nnc(Nc3ccc(F)cc3F)o2)c1 .
Out: potent inhibition

Entry source: paper PMC10253498
